System: methanogenesis in rumen liquor
protocol.summary: In vitro test for methane production (modified Hohenheim Forage value Test)
condition.set: 0.1% DM; 8 h, 39° C.; average of two experiments; vs control
Items are presented alongside their recorded effect on methanogenesis (%).
All answers are understood in %, so give the number only.

The examples below pair each entry with its known result.
| compound | experimental.system | measured.property | reported.value |
| --- | --- | --- | --- |
| CCOC(=O)CCCCCO[N+](=O)[O-] | methanogenesis in rumen liquor | effect on methanogenesis (%) | −100 |
| O=C(O)CCCCCO[N+](=O)[O-] | methanogenesis in rumen liquor | effect on methanogenesis (%) | −100 |
| CCOC(=O)CCCCCCCO[N+](=O)[O-] | methanogenesis in rumen liquor | effect on methanogenesis (%) | −99 |

Here's the next entry for you.
Q: Which measured effect on methanogenesis (%) belongs to O=C(O)CCCCCCCCCCO[N+](=O)[O-] , tested on methanogenesis in rumen liquor?
A: −99

Every entry's value here was drawn from patent US9365489B2.
